System: 947758-054-R-J2-PDC spheroid growth, percent test/control;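 also: spheroids exposed to compounds for one week before readout; 100% = DMSO vehicle control wells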
assay_summary: Anticancer human tumor 947758-054-R-J2-PDC patient-derived colon adenocarcinoma cell line growth inhibition [CLK]
condition_parameters: second compound 0.0316 µM; first compound 0.03 µM; active compounds read low; spheroids with HUVEC and MSC
readout_name: viability, T/C (%)
API: value field is a number in %; no unit string.

1. C=CC(=O)Nc1cc(Nc2nccc(-c3cn(C)c4ccccc34)n2)c(OC)cc1N(C)CCN(C)C + CNC(=O)c1ccc(Nc2nc(OC3CCCC3)c3c(-c4ccc5nc(C)oc5c4)c[nH]c3n2)c(OC)c1 = 94.6
2. CC(C)CC(NC(=O)C(Cc1ccccc1)NC(=O)c1cnccn1)B(O)O (stereo unspecified) + CN1CCN(c2cc(C(=O)Nc3cc4cc(-c5cnn(C)c5)ccc4cn3)ccn2)CC1 = 0.27
3. C=CC(=O)Nc1cc(Nc2nccc(-c3cn(C)c4ccccc34)n2)c(OC)cc1N(C)CCN(C)C + CN1CCN(c2cc(C(=O)Nc3cc4cc(-c5cnn(C)c5)ccc4cn3)ccn2)CC1 = 81.4

State the recorded viability, T/C for this entry: CC(C)CC(NC(=O)C(Cc1ccccc1)NC(=O)c1cnccn1)B(O)O (stereo unspecified) + CNC(=O)c1ccc(Nc2nc(OC3CCCC3)c3c(-c4ccc5nc(C)oc5c4)c[nH]c3n2)c(OC)c1 0.29

State the recorded viability, T/C for this entry: NC(=O)C(=Cn1cnc(-c2cc(C(F)(F)F)cc(C(F)(F)F)c2)n1)c1cncnc1 + CNC(=O)c1ccc(Nc2nc(OC3CCCC3)c3c(-c4ccc5nc(C)oc5c4)c[nH]c3n2)c(OC)c1 37.3

State the recorded viability, T/C for this entry: NC(=O)C(=Cn1cnc(-c2cc(C(F)(F)F)cc(C(F)(F)F)c2)n1)c1cncnc1 + CN1CCN(c2cc(C(=O)Nc3cc4cc(-c5cnn(C)c5)ccc4cn3)ccn2)CC1 224
